Reference source for all entries: patent US4156011A

Here, each record is paired with measured inhibition in vivo at 100 mg/kg data.
assay: Reduction of lipids and cholesterol in rats treated orally; assay type: in vivo; details: Rattus norvegicus, 96 h; oral 100 mg/kg, 4 days
MEASUREMENT_NAME: inhibition in vivo at 100 mg/kg (%)

1. CC(Sc1ccc(Oc2ccc(Cl)cc2)cc1)C(=O)OCCSCCCCCCCCCCSCCOC(=O)C(C)Sc1ccc(Oc2ccc(Cl)cc2)cc1 (racemic) [CRL 40,408] :: 20
2. CC(COC(=O)CSc1ccc(Oc2ccc(Cl)cc2)cc1)SCCCCCCCCCCSC(C)COC(=O)CSc1ccc(Oc2ccc(Cl)cc2)cc1 (racemic) [CRL 40,405] :: 44
3. CC(COC(=O)CSc1ccc(Sc2ccc(Cl)cc2)cc1)SCCCCCCCCCCSC(C)COC(=O)CSc1ccc(Sc2ccc(Cl)cc2)cc1 (racemic) [CRL 40,395] :: 27
4. CC(COC(=O)C(C)(C)Sc1ccc(Sc2ccc(Cl)cc2)cc1)SCCCCCCCCCCSC(C)COC(=O)C(C)(C)Sc1ccc(Sc2ccc(Cl)cc2)cc1 (racemic) [CRL 40,403] :: 32

====

experiment: Hypo-lipidaemic and hypo-cholesterolaemic action of other products (Table V); type: in vivo, rats; conditions: Rattus norvegicus, 96 h; oral 100 mg/kg for 4 days; read-out: Total lipids (change)
MEASUREMENT_NAME: change in vivo at 100 mg/kg

1. CCN(CC)CCNC(=O)COc1ccc(Oc2ccc(Cl)cc2)cc1.Cl [CRL 40,334, hydrochloride] :: -17%
2. CC(C)(CO)Oc1ccc(Oc2ccc(Cl)cc2)cc1 :: -20%
3. Cl.OCCNCCOc1ccc(Oc2ccc(Cl)cc2)cc1 [CRL 40,295, hydrochloride] :: -19%
4. O=C(O)COc1ccc(Oc2ccc(Cl)cc2)cc1 :: -24%
5. Cl.NCCOc1ccc(Oc2ccc(Cl)cc2)cc1 [CRL 40,317, hydrochloride] :: -37%
6. CCN(CC)CCOc1ccc(Oc2ccc(Cl)cc2)cc1.Cl [CRL 40,330, hydrochloride] :: -13%

====

assay: Solubility of the isolated product; settings: water
MEASUREMENT_NAME: solubility in water (in words)

1) CC(Sc1ccc(Sc2ccc(Cl)cc2)cc1)C(=O)O (racemic) :: water-insoluble
2) CC(CO)Sc1ccc(Oc2ccc(Cl)cc2)cc1 (racemic) :: water-insoluble
3) CC(C)(Oc1ccc([S+]([O-])c2ccc(Cl)cc2)cc1)C(=O)OCCNCCSCCCCCCCCCCSCCNCCOC(=O)C(C)(C)Oc1ccc([S+]([O-])c2ccc(Cl)cc2)cc1 (centres unmarked) :: insoluble in water
4) CC(Oc1ccc(Oc2ccc(Cl)cc2)cc1)C(=O)O (racemic) :: insoluble in water
5) CC(C)(Oc1ccc(Sc2ccc(Cl)cc2)cc1)C(=O)NCCO :: insoluble in water
6) OCCNCCSc1ccc(Oc2ccc(Cl)cc2)cc1 :: insoluble in water
7) CC(C)(Oc1ccc(S(=O)(=O)c2ccc(Cl)cc2)cc1)C(=O)O :: insoluble in water
